test system: DB (B-Cell Non-Hodgkin's Lymphoma); experiment: combination Emax (second highest fraction inhibited in the dose matrix, 72 h); higher = more inhibition; extreme values may be limits of the assay
outcome.measure: combination Emax

molecule="CC1(C)CCC(CN2CCN(c3ccc(C(=O)NS(=O)(=O)c4ccc(NCC5CCOCC5)c([N+](=O)[O-])c4)c(Oc4cnc5[nH]ccc5c4)c3)CC2)=C(c2ccc(Cl)cc2)C1 [Venetoclax] + C[C@@H](Nc1cc(F)cc(F)c1)c1cc(C(=O)N(C)C)cc2c(=O)cc(N3CCOCC3)oc12 [AZD8186] (first compound max 1 µM, 7x7, partner max 3 µM)" outcome_measure="combination Emax" endpoint_value=0.943
molecule="NC1(C(=O)N[C@@H](CCO)c2ccc(Cl)cc2)CCN(c2ncnc3[nH]ccc23)CC1 [Capivasertib] + CC(=O)c1c(C)c2cnc(Nc3ccc(N4CCNCC4)cn3)nc2n(C2CCCC2)c1=O [Palbociclib] (first compound max 10 µM, 7x7, partner max 10 µM)" outcome_measure="combination Emax" endpoint_value=0.728
molecule="C[C@@H]1COCCN1c1cc(C2([S@](C)(=N)=O)CC2)nc(-c2ccnc3[nH]ccc23)n1 [AZD6738] + C1CC(C1)(C(=O)[O-])C(=O)[O-].N.N.[Pt+2] [Carboplatin] (first compound max 10 µM, 7x7, partner max 10 µM)" outcome_measure="combination Emax" endpoint_value=0.435
